Test system: NCI-H226 lung
Test: NCI tumour cell line growth inhibition, 48 h
measurement.kind: TGI

As a guide, the following entries are already answered.
Cc1nc(-c2ccccc2)c(Cc2ccccc2O)c(=O)[nH]1: > 100 µM
CCC[CH2][Sn]([CH2]CCC)([O]C(=O)c1cc(F)ccc1F)[O][Sn]([CH2]CCC)([CH2]CCC)[O]C(=O)c1cc(F)ccc1F: 1.25 µM
O=C1[C@@H]2C(c3ccc(Cl)cc3Cl)=NO[C@@H]2C(=O)N1c1ccc(Cc2ccc(N3C(=O)[C@H]4C(c5ccc(Cl)cc5Cl)=NO[C@H]4C3=O)cc2)cc1: > 100 µM

Enquiry: Return reported TGI for target or system NCI-H226 lung, item C#CCNC(=O)NCCCC(NC(C)=O)C(=O)NCc1ccccc1 (stereo not drawn) .
Return: > 100 µM

Enquiry: Return reported TGI for target or system NCI-H226 lung, item N/C(=N\S(=O)(=O)c1cccc2nsnc12)Nc1ccc(Cl)cc1 .
Return: > 100 µM

* * *

System: SF-539 CNS
Assay: NCI tumour cell line growth inhibition, 48 h
measurement.kind: TGI (µM)
Entry rule: numbers only, all in µM.

Enquiry: Give reported TGI value for O=C(c1ccco1)N(Cc1ccco1)C(=S)Nc1ccccc1
Return: 15.4

Enquiry: Give reported TGI value for O=C1CS(=O)(=O)C(c2cccc(Oc3ccccc3)c2)N1c1cccc(Cl)c1 (stereo not given)
Return: 37.4

Enquiry: Give reported TGI value for c1ccc2c(c1)Nc1ccccc1[P+]21c2ccccc2Nc2ccccc21
Return: 0.817

Enquiry: Give reported TGI value for CC(=O)c1c(SCCN2CCCC2)n(-c2ccccc2)c(=S)n(-c2ccccc2)c1=O
Return: 12.5

Enquiry: Give reported TGI value for CC(C)c1c(C(=O)Nc2ccccc2)c(-c2ccccc2)c(-c2ccc(F)cc2)n1CC[C@@H]1CC=CC(=O)O1
Return: 3.14

Enquiry: Give reported TGI value for Cc1ccccc1C1=[N+]([O-])c2ccccc2C1=O
Return: 33.7

* * *

Test system: SK-MEL-28 melanoma
Assay: NCI tumour cell line growth inhibition, 48 h; in the data active = GI50 below about 0.43 µM; inactive = the rest
Respond using exactly one of the listed classes: yes (1) (active), no (0) (inactive)

COc1cc2c(cc1OCCCCCOc1cc3c(cc1OC)C(=O)N1CC(F)C[C@H]1C=N3)N=C[C@@H]1CC(F)CN1C2=O (some centres undefined): yes (1)
CN(c1cc2ncc(=O)[nH]c2cc1NC(N)=NCc1ccc(Cl)cc1)C1CCCCC1: no (0)
Cc1ccc(NC(=O)Cc2ccc(/C=C/C(=O)c3ncc[nH]3)cc2)cc1: no (0)

# ---- query molecule ----
Enquiry: Which result was noted for this molecule in the test: CC(C)[C@H]1CC[C@H]2[C@@H](CC[C@H]3[C@](C)(CN)CCC[C@]23C)C1
Return: no (0)

* * *

System: UACC-62 melanoma
Experiment: NCI tumour cell line growth inhibition, 48 h
measurement.kind: TGI

As a guide, the following entries are already answered.
COc1cccc(C2C3=C(COC3=O)N(CCO)c3cc(OC)ccc32)c1 (stereo unspecified): > 100 µM
O=C1N(c2ccccc2)C2(c3ccccc3)CC3CCCC13S2 (stereo unspecified): > 100 µM
CSc1cccc(-n2c3nc(=O)n(C)c(=O)c-3nc3ccccc32)c1: 6.14 µM
COc1cc(-n2cc(-c3ccc(F)cc3)nc2SCc2ccccc2)cc(OC)c1OC: > 100 µM
COc1ccc(N(CN2C(=O)CCC2C(=O)O)C(C)=O)cc1 (stereo unspecified): > 100 µM

Let us move to another entry and its TGI.
Enquiry: Give reported TGI value for COc1ccc(/C(Cl)=C(/c2ccc(O)cc2)c2ccc(OCCN(C)C)cc2)cc1
Return: 32.9 µM

* * *

Tested on: SF-268 CNS
Assay: NCI tumour cell line growth inhibition, 48 h
measurement.kind: TGI

As a guide, the following entries are already answered.
CCN1/C(=C/C=C/c2n(-c3ccccc3)c3ccc(-c4nc5ccccc5s4)cc3[n+]2CC)N(c2ccccc2)c2ccc(-c3nc4ccccc4s3)cc21: > 50 µM
Cc1ccc(NC(=O)Cc2ccc(/C=C/C(=O)c3ncc[nH]3)cc2)cc1: > 25 µM

Let us move to another entry and its TGI.
Enquiry: Give reported TGI value for Cc1cc(NCCCNc2ccnc3cc(Cl)ccc23)nc(N2CCN(C)CC2)n1
Return: 26.3 µM

* * *

Test system: CCRF-CEM leukemia
Experiment: NCI tumour cell line growth inhibition, 48 h
Attribute: TGI

As a guide, the following entries are already answered.
COC(=O)C1=C(C)NC(C)=C(C(=O)OC)C1/C=C(\Cl)c1ccc(Cl)c(Cl)c1: 31.6 µM
Cn1ccc(C(=O)N2CCSC2=S)c(OCc2ccccc2)c1=O: > 100 µM
COc1ccc(C2CC(c3cccc(Nc4ccncc4)c3)=NN2c2ccc(Cl)cc2)cc1 (stereo unspecified): 7.74 µM
CCOC(=O)C[C@@H]1C2(C=C[C@@]13CO3)OCC(C)(C)CO2: > 100 µM
CCC[CH2][Sn]([CH2]CCC)([O]C(=O)c1cc(F)ccc1F)[O][Sn]([CH2]CCC)([CH2]CCC)[O]C(=O)c1cc(F)ccc1F: 2.7 µM
O=Cc1cc([N+](=O)[O-])no1: > 100 µM
CN(Cc1ccc(Cl)cc1)c1ccc(CO)c(Cl)c1: > 66.3 µM
CC(C)c1c(C(=O)Nc2ccccc2)c(-c2ccccc2)c(-c2ccc(F)cc2)n1CC[C@@H]1CC=CC(=O)O1: 2.44 µM

Let us move to another entry and its TGI.
Enquiry: Return reported TGI for target or system CCRF-CEM leukemia, item CS(=O)(=O)OC1CN2CCC1CC2 (stereo unspecified) .
Return: > 100 µM

* * *

System: NCI/ADR-RES ovarian
Assay: NCI tumour cell line growth inhibition, 48 h
Attribute: GI50

c1ccc(C2CC(c3cccc(Nc4ccncc4)c3)=NN2c2ccccc2)cc1 (stereo unspecified): 1.74 µM
Nc1ccccc1-c1ccc([N+](=O)[O-])cc1: 26.2 µM
O=C1CC(c2cccc(O)c2)C2(C(=O)NC(=S)NC2=O)C(c2cccc(O)c2)C1 (stereo unspecified): > 100 µM
CC/C(=C(/c1ccc(OCCN(C)C)cc1)c1ccc(OC(=O)CCC(=O)c2c(C)[nH]c(/C=C3\N=C(c4ccc[nH]4)C=C3OC)c2C)cc1)c1ccccc1: 3.62 µM
CC(C)[C@H]1CC[C@H]2[C@@H](CC[C@H]3[C@](C)(CN)CCC[C@]23C)C1: 2.08 µM

Let us move to another entry and its GI50.
Enquiry: Give reported GI50 value for CCN1/C(=C/C=C/c2n(-c3ccccc3)c3ccc(-c4nc5ccccc5s4)cc3[n+]2CC)N(c2ccccc2)c2ccc(-c3nc4ccccc4s3)cc21
Return: 3.55 µM

* * *

System: MOLT-4 leukemia
Test: NCI tumour cell line growth inhibition, 48 h
measurement.kind: TGI

As a guide, the following entries are already answered.
Fc1ccc(-c2nn3c(-c4ccc(F)c(Cl)c4)nnc3s2)cc1: > 50 µM
Cc1cc(NS(=O)(=O)c2ccc(NC(=O)c3ccc4[nH]c5ccccc5c(=O)c4c3)cc2)no1: > 100 µM
COc1cc(-n2cc(-c3ccc(F)cc3)nc2SCc2ccccc2)cc(OC)c1OC: > 100 µM
Cc1c(C#N)c2ccccc2c2nc3ccccc3n12: > 100 µM
O=C1N(c2ccccc2)C2(c3ccccc3)CC3CCCC13S2 (stereo unspecified): > 100 µM

Let us move to another entry and its TGI.
Enquiry: Give reported TGI value for C#CCn1ncc2c(SC)ncnc21
Return: > 100 µM

* * *

Tested on: A498 renal
Experiment: NCI tumour cell line growth inhibition, 48 h
Attribute: TGI

Enquiry: Give reported TGI value for O=C(C=Nc1ccccc1C(=O)[O-])c1cccs1.O=C(C=Nc1ccccc1C(=O)[O-])c1cccs1.[Co+2]
Return: > 100 µM

Enquiry: Give reported TGI value for CCOC(O)(NC(=O)C(C(F)(F)F)C(F)(F)F)C(F)(F)F (stereo not drawn)
Return: > 100 µM

Enquiry: Give reported TGI value for Oc1ccc(CN2CCC(N3CCOCC3)CC2)c2cccnc12
Return: > 100 µM

* * *

System: A498 renal
Experiment: NCI tumour cell line growth inhibition, 48 h
Attribute: TGI

O=[N+]([O-])c1ccc2[nH]nc(OCc3ccccn3)c2c1: > 100 µM
COc1ccccc1/C=C(\C#N)C(=O)c1ccccc1: > 100 µM
C/C=C/C1=C(Cl)C(=O)[C@@H](Cl)[C@@]1(O)C(=O)OC: 14.3 µM
Cc1c(C#N)c2ccccc2c2nc3ccccc3n12: > 100 µM

Let us move to another entry and its TGI.
Enquiry: Give reported TGI value for Cn1c(N)c(C(N)=O)[nH]c1=S
Return: > 100 µM

* * *

Attribute: TGI
System: HCT-15 colon
Experiment: NCI tumour cell line growth inhibition, 48 h

CCOc1ccc(-c2cnnn2-c2nonc2-n2cccc2)cc1: > 100 µM
COc1ccc(NC(=O)CC(=O)N2N=C(N(CCC#N)c3ccccc3Cl)CC2c2ccccc2)cc1 (stereo not drawn): > 100 µM

Enquiry: Give reported TGI value for N#Cc1c2c(c(Nc3cccc(C(F)(F)F)c3)n3c1nc1ccccc13)CCC2
Return: > 100 µM
